# assay method text: 28-day once weekly oral repeated-dose DRF study in cynomolgus monkeys (mesylate salt)
# Assay type: in vivo
# condition summary: male, cynomolgus monkey, blood, po, 90 mg/kg, M, Day 1
reported metric: half-life (h)

>>> df
                                   molecule  reported_metric  test_value
0  CC(C)C[C@@H]1NCCN([C@@H](CC(C)C)C(=O)N2CCC3(C[C@@H]2C)OCC(CN2CCCC2)CO3)C1=O (stereo partly shown) [Compound 1]        half-life         4.2

====

# assay method text: 28-day once weekly oral repeated-dose DRF study in cynomolgus monkeys (mesylate salt)
# Type: in vivo
# condition summary: male, cynomolgus monkey, blood, po, 60 mg/kg, M, Day 22; read-out: AUC0-Tlast
# Description: The objective of the study was to determine the TK profile of Compound 1 following 4 weekly oral administrations to cynomolgus monkeys and to assess reversibility of any changes following a 13-day recovery period. Male and female cynomolgus monkeys (n=1/sex/group) were orally administered Compound 1 (mesylate salt) at dose levels of 30, 45, 60, or 90 mg/kg/administration for 4 consecutive doses on study days 1, 8, 15, and 22. The vehicle was 0.5% (w/v) methyl cellulose 400 in sterile water. […]
reported metric: AUC(0-t)

                                   compound    test_value
0  CC(C)C[C@@H]1NCCN([C@@H](CC(C)C)C(=O)N2CCC3(C[C@@H]2C)OCC(CN2CCCC2)CO3)C1=O (stereo partly shown)  6710 ng·h/mL

====

# assay method text: 28-day once weekly oral repeated-dose DRF study in cynomolgus monkeys (mesylate salt)
# Format: in vivo
# condition summary: female, cynomolgus monkey, whole blood, po, 30 mg/kg, F, Day 1
reported metric: Tmax (min)

In [3]: df
Out[3]:
                                   compound  test_value
0  CC(C)C[C@@H]1NCCN([C@@H](CC(C)C)C(=O)N2CCC3(C[C@@H]2C)OCC(CN2CCCC2)CO3)C1=O (stereo partly shown) [Compound 1]        37.8

====

# assay method text: Single dose intravenous and oral PK in Beagle dogs (citrate salt)
# Type: in vivo
# Parameters: unit not given here
# condition summary: both sexes, beagle, dog, whole blood; IV 4 mg/kg
reported metric: AUC(0-inf)

>>> df
                                   compound  test_value
0  CC(C)C[C@@H]1NCCN([C@@H](CC(C)C)C(=O)N2CCC3(C[C@@H]2C)OCC(CN2CCCC2)CO3)C1=O (stereo partly shown)        1.45

====

# assay method text: 14-day daily oral repeated-dose DRF study in cynomolgus monkeys (mesylate salt)
# Assay type: in vivo
# condition summary: both sexes, cynomolgus monkey, plasma, po, 8 mg/kg, 8 mg/kg (Gr. 3), Day 5
reported metric: Cmax (ng/mL)

In [3]: df
Out[3]:
                                   compound  test_value
0  CC(C)C[C@@H]1NCCN([C@@H](CC(C)C)C(=O)N2CCC3(C[C@@H]2C)OCC(CN2CCCC2)CO3)C1=O (stereo partly shown)        18.8

====

# assay method text: 28-day once weekly oral repeated-dose DRF study in cynomolgus monkeys (mesylate salt)
# Assay type: in vivo
# condition summary: male, cynomolgus monkey, blood, po, 90 mg/kg, M, Day 1
reported metric: Cmax (µg/mL)

In [3]: df
Out[3]:
                                   molecule  test_value
0  CC(C)C[C@@H]1NCCN([C@@H](CC(C)C)C(=O)N2CCC3(C[C@@H]2C)OCC(CN2CCCC2)CO3)C1=O (stereo partly shown)         7.3
